Experiment: Oral bioavailability studies in dogs (plasma concentration by bioassay)
Assay type: in vivo
Conditions: dog, plasma, iv, 1 mg/kg, IV at 1 mg/kg, 8 hr, individual animals, read-out: Estimated Plasma Concentration
reportedMetric: concentration at 8 h (ng/mL)
Answer with a number only, understood to be in ng/mL.

# get_value(readout='concentration at 8 h', item= C#CC[C@H](NC(=O)C(CC(=O)N(C)CCN(C)C)Cc1ccccc1)C(=O)NC(CC1CCCCC1)[C@@H](O)C(O)CC(C)C (relative stereo) [Example 1] ) 6.4

====

Experiment: Oral bioavailability studies in marmosets (plasma concentration by bioassay)
Format: in vivo
Settings: marmoset, plasma, iv, 1 mg/kg, marmoset, IV at 1 mg/kg, 2 hr; Test Run D table; read-out: Plasma Concentrations, Mean ± SE
reportedMetric: concentration at 2 h (ng/mL)
Answer with a number only, understood to be in ng/mL.

# get_value(readout='concentration at 2 h', item= C#CC[C@H](NC(=O)C(CC(=O)N(C)CCN(C)C)Cc1ccccc1)C(=O)NC(CC1CCCCC1)[C@@H](O)C(O)CC(C)C (relative stereo) ) 1240
